Value source: paper PMC5540273

- System: MST1;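 note: KINOMEscan kinase panel screen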
- Construct: gene STK4
- TEST SETTINGS: concentration: 1 μM, replicates: in singlicate; n = 1

COMPOUND	VALUE UNITS	%Inh
Cc1nn2c(=O)cc(N3CCO[C@H](C)C3)nc2n1Cc1cccc(Cl)c1Cl	%	20
COc1cccc(C2=C(Nc3cccc(O)c3)C(=O)NC2=O)c1	%	13
Cc1ccc(NC(=O)c2ccnc(N3CCCCC3)c2)cc1-c1ccc(C(=O)NCC2CC2)cc1	%	13
COc1ccc(NC(=O)c2ccoc2)cc1-c1ccc(C(=O)NCC2CC2)cc1	%	22
Nc1ncc(-c2cn[nH]c2)c2scc(-c3ccc4c(c3)CCN4C(=O)Cc3ccccc3)c12	%	99.4
COc1cccc(-c2nc(-c3ccccc3)[nH]c2-c2ccncc2)c1	%	8
COc1cc(Nc2ccnc3cc(-c4ccncc4)ccc23)cc(OC)c1OC.Cl	%	9
Cl.N#CCc1ccc(Nc2nccc(Nc3ccc(Oc4ccccc4)cc3)n2)cc1	%	20
O=C(Nc1c(F)cccc1F)c1cc(C(=O)c2ccccc2F)c[nH]1	%	2
CC(C)NCC(Cc1ccccc1)NC(=O)c1cc(Br)c(-c2ccnc3[nH]ccc23)s1.Cl.Cl (stereo not shown)	%	0
O=C(Nc1n[nH]c2cc(-c3cccs3)ccc12)C1CC1	%	10
Cn1cc(-c2ccc3c(c2)CCN3C(=O)Cc2cc(F)cc(F)c2F)c2c(N)ncnc21	%	85
Nc1ncc(-c2ccc3nccc(-c4ccncc4)c3c2)cc1S(=O)(=O)N1CCCCC1	%	8
COC(=O)Nc1nc2ccc(Oc3ccc(NC(=O)Nc4cc(C(F)(F)F)ccc4F)cc3)cc2[nH]1.Cl	%	6
COc1cccc2c(-c3ccncc3)c(-c3ccc(F)cc3)nn12	%	31
N#CC1(c2cccc(C(=O)Nc3cccc(Oc4ccc5nc(NC(=O)C6CC6)sc5n4)c3)c2)CC1	%	4
CN(c1ccc(F)c(NC(=O)c2cccc(OC(C)(C)C#N)c2Cl)c1)c1ccc2nc(NC(=O)C3CC3)sc2n1	%	0
CNc1nccc(-c2ccc3c(N)n[nH]c3c2)n1	%	30
Cc1ccc(-c2ccc3occ(-c4ccc(S(C)=O)cc4)c3c2)nn1 (stereo not shown)	%	0
